tested on: Yap1 mRNA; test: Antisense inhibition of human Yap1 in A-431 cells by cEt gapmers, single dose (Example 4, RTS4814); format: cell-based; conditions: Table 14; A-431 cells, 5,000 cells per well, free uptake, 2,000 nM, approximately 48 hours; RTS4814; normalized to RIBOGREEN; Yap1 mRNA relative to untreated control; * = targets amplicon region of primer probe set
Strand notation (5' to 3'): a small letter for the sugar, then the base; units joined by * are phosphorothioate-linked, units joined directly phosphodiester-linked; [ ] holds rarer units or linkages, { } end groups; capitals alone tell only the bases. k = constrained ethyl (cEt); [5mC] = 5-methylcytosine; d = 2'-deoxy (DNA)
Field: class. Source value: YAP1 (% UTC). Ranges: class 0 (below 40 % UTC), class 1 (40 % UTC to below 70 % UTC), class 2 (70 % UTC or more)

Field: example entries. Status: answers known.
Substance: 1075936 (k[5mC]*kT*kT*dA*dT*dA*dT*dT*d[5mC]*dT*d[5mC]*dT*d[5mC]*k[5mC]*kG*kA; antisense) [Compound 1075936]
Test System: Yap1 mRNA
Label Value: class 1
--
Substance: 1075872 (k[5mC]*kA*kA*dT*dT*dA*dT*dG*dA*d[5mC]*dA*dA*dA*k[5mC]*kA*kG; antisense) [Compound 1075872]
Test System: Yap1 mRNA
Label Value: class 0
--
Substance: 1074656 (antisense kG*kA*k[5mC]*dT*dT*dA*dA*dT*dT*d[5mC]*dA*dA*dG*kA*kT*kT) [Compound 1074656]
Test System: Yap1 mRNA
Label Value: class 0

input: GET /class?item= 1075456 (antisense kT*kT*kA*d[5mC]*dG*dA*dA*dA*dT*dG*dT*dT*dT*kA*kG*kT) [Compound 1075456]
output: class 1

input: Same lookup for 1076416 (kA*k[5mC]*k[5mC]*dG*dA*dA*dA*dT*dG*dA*dT*dA*d[5mC]*kT*kG*kA; antisense) [Compound 1076416] , please.
output: class 0

----------
Measured YAP1 (% UT), listed per entry for reference.
tested on: Yap1 mRNA; experiment: Antisense inhibition of human Yap1 in SNU-449 cells by modified oligonucleotides, single dose (Example 5, RTS36584); format: cell-based; settings: Table 51; Yap1 mRNA remaining as percent of untreated control (UT), SNU-449 cells, single dose
Strand notation (5' to 3'): a small letter for the sugar, then the base; units joined by * are phosphorothioate-linked, units joined directly phosphodiester-linked; [ ] holds rarer units or linkages, { } end groups; capitals alone tell only the bases. k = constrained ethyl (cEt); [5mC] = 5-methylcytosine; d = 2'-deoxy (DNA); m = 2'-O-methyl
The reply should contain only the number, in % UT.

Substance: 1197306 (k[5mC]*kA*kA*d[5mC]*mU*d[5mC]*dT*dT*dA*dT*dA*dT*dG*kG*kT*kT; antisense) [Compound 1197306]
Assay Value: 77

input: Sample 1197262 (A_{ks}A_{ks}^{m}C_{ks}T_{ds}C_{ys}T_{ds}T_{ds}A_{ds}T_{ds}A_{ds}T_{ds}G_{ds}G_{ds}T_{ks}T_{ks}T_{k}; as printed in the source, key not given here) [Compound 1197262] — what was its YAP1 (% UT)?
output: 89

input: Same lookup for 1200793 (kA*kG*kT*dA*dT*mG*dT*dG*dG*d[5mC]*dA*dA*dT*kA*kA*kT; antisense) [Compound 1200793] , please.
output: 31

----------
tested on: Yap1 mRNA; assay: Dose-dependent inhibition of human Yap1 in A-431 cells (Example 7, 10,000 cells per well, RTS36584); assay type: cell-based; settings: 4000.00 nM, A-431 cells, 10,000 cells per well, free uptake, approximately 48 hours
Strand notation (5' to 3'): a small letter for the sugar, then the base; units joined by * are phosphorothioate-linked, units joined directly phosphodiester-linked; [ ] holds rarer units or linkages, { } end groups; capitals alone tell only the bases. k = constrained ethyl (cEt); [5mC] = 5-methylcytosine; d = 2'-deoxy (DNA)
Experimental Endpoint: Yap1 mRNA, % UTC (% UTC)
The reply should contain only the number, in % UTC.

Worked set:
Substance: 958505 (kG*kA*kT*dA*dA*dT*d[5mC]*dG*dA*dG*dA*dT*dT*kT*kA*kA; antisense) [compound 958505]
Test System: Yap1 mRNA
Yap1 mRNA, % UTC / % UTC: 21
//
Substance: 958594 (k[5mC]*kT*k[5mC]*dT*dT*dA*dG*dG*dT*d[5mC]*dT*d[5mC]*d[5mC]*kT*kT*k[5mC]; antisense) [compound 958594]
Test System: Yap1 mRNA
Yap1 mRNA, % UTC / % UTC: 20
//
Substance: 958550 (k[5mC]*k[5mC]*kT*dG*dT*dA*dG*dA*d[5mC]*dA*d[5mC]*dA*dT*kA*k[5mC]*kT; antisense) [compound 958550]
Test System: Yap1 mRNA
Yap1 mRNA, % UTC / % UTC: 10
//
Substance: 958540 (kA*kT*kT*d[5mC]*dT*dA*dT*d[5mC]*d[5mC]*dA*dG*dG*dG*kT*k[5mC]*kA; antisense) [compound 958540]
Test System: Yap1 mRNA
Yap1 mRNA, % UTC / % UTC: 8
//
Substance: 958580 (kA*kT*kA*dA*dT*d[5mC]*dT*dT*dA*dA*dT*d[5mC]*dT*kG*kT*kG; antisense) [compound 958580]
Test System: Yap1 mRNA
Yap1 mRNA, % UTC / % UTC: 9
//
Substance: 958549 (kT*kG*kT*dA*dG*dA*d[5mC]*dA*d[5mC]*dA*dT*dA*d[5mC]*kT*k[5mC]*kT; antisense) [compound 958549]
Test System: Yap1 mRNA
Yap1 mRNA, % UTC / % UTC: 28

input: Sample 958525 (kA*kT*kG*dA*dA*dG*dG*dT*dA*dA*dA*d[5mC]*d[5mC]*kA*k[5mC]*kT; antisense) [compound 958525] — what was its Yap1 mRNA, % UTC?
output: 8

input: Same lookup for 958625 (kT*kG*k[5mC]*dT*dG*dG*dG*dA*dT*dT*dG*dA*dT*kA*kT*kT; antisense) [compound 958625] , please.
output: 17

input: Same lookup for 958605 (k[5mC]*kT*k[5mC]*dA*dG*dA*dT*dG*dT*dA*d[5mC]*d[5mC]*dA*kA*k[5mC]*kG; antisense) [compound 958605] , please.
output: 9

input: Same lookup for 958555 (kG*k[5mC]*kT*dT*dA*dT*dA*dT*dT*dG*dA*dA*dG*kA*kG*kT; antisense) [compound 958555] , please.
output: 13

input: Same lookup for 958650 (kT*k[5mC]*kA*dA*dT*dT*dG*dA*dG*dT*d[5mC]*dT*dG*k[5mC]*kT*kA; antisense) [compound 958650] , please.
output: 7

input: Same lookup for 958565 (kT*kT*kG*dA*dG*d[5mC]*dA*d[5mC]*dT*dG*dA*dA*dA*kG*kT*kA; antisense) [compound 958565] , please.
output: 13

input: Same lookup for 958785 (kG*k[5mC]*kA*dA*dT*d[5mC]*d[5mC]*dA*d[5mC]*dA*dA*dT*dT*k[5mC]*k[5mC]*kA; antisense) [compound 958785] , please.
output: 6

input: Same lookup for 958570 (kT*kG*kT*dA*dA*dT*dT*d[5mC]*dA*dT*dA*dT*dA*k[5mC]*k[5mC]*k[5mC]; antisense) [compound 958570] , please.
output: 17

input: Same lookup for 958545 (kA*k[5mC]*kT*d[5mC]*dT*dA*dG*dT*dT*dA*d[5mC]*dA*dT*k[5mC]*kA*kT; antisense) [compound 958545] , please.
output: 8

input: Same lookup for 958725 (kG*kT*k[5mC]*dA*dG*dT*dT*dA*dT*d[5mC]*d[5mC]*dT*dA*kT*k[5mC]*k[5mC]; antisense) [compound 958725] , please.
output: 1

input: Same lookup for 958795 (kT*kA*kT*dT*d[5mC]*d[5mC]*dG*d[5mC]*dA*dT*dT*dG*d[5mC]*k[5mC]*kT*kA; antisense) [compound 958795] , please.
output: 20

----------
system: Yap1 mRNA; experiment: Antisense inhibition of human Yap1 in A-431 cells by cEt gapmers, single dose (Example 3, RTS36584); assay type: cell-based; settings: Table 27; Yap1 mRNA by 3-10-3 cEt gapmers targeting SEQ ID NO.: 1, and 2; percent of untreated control
Strand notation (5' to 3'): a small letter for the sugar, then the base; units joined by * are phosphorothioate-linked, units joined directly phosphodiester-linked; [ ] holds rarer units or linkages, { } end groups; capitals alone tell only the bases. k = constrained ethyl (cEt); [5mC] = 5-methylcytosine; d = 2'-deoxy (DNA)
YAP1 (% UTC) vs 50 % UTC: at or above is T, below is F.

Substance: 1074989 (antisense kG*kA*kG*dG*dG*dA*dA*dA*dG*d[5mC]*dA*d[5mC]*dG*k[5mC]*k[5mC]*k[5mC]) [compound 1074989]
Label Value: T
--
Substance: 1076173 (k[5mC]*kA*kA*dT*dA*dT*dA*dT*d[5mC]*d[5mC]*dT*dG*dA*kG*kA*kT; antisense) [compound 1076173]
Label Value: T
--
Substance: 1075629 (antisense kG*k[5mC]*k[5mC]*dG*d[5mC]*dA*dA*dA*dA*dT*dA*dT*dT*kA*kA*kT) [compound 1075629]
Label Value: T

input: Hello, I need to know if 1076493 (kT*kG*kA*d[5mC]*dA*dA*dT*dA*dA*dG*dG*dG*dA*k[5mC]*kA*kA; antisense) [compound 1076493] has measured YAP1 (% UTC) not below 50 % UTC. Thanks!
output: F

input: Same lookup for 1074797 (kA*k[5mC]*kT*d[5mC]*d[5mC]*dA*dA*dA*dT*d[5mC]*dA*dA*dT*kG*kT*kG; antisense) [compound 1074797] , please.
output: F

input: Same lookup for 1075917 (antisense kA*kG*k[5mC]*dA*dA*dA*dA*dA*dG*dT*dG*dA*dT*kA*kT*kG) [compound 1075917] , please.
output: T
